Test: Cmax in mini pig at 10 mg/kg, po
Format: ADME, organism-based, Sus scrofa
Design: dose 10 mg/kg, route oral
Conditions: in vivo
Measurement Label: Cmax

> print(dat)
                                 mol.smiles  measurement.label  measured.result
1  CC(C)N(C)c1ccc([C@H]2C[C@@]3(C)[C@@H](CC[C@@]3(O)C#CC(C)(C)C)[C@@H]3CCC4=CC(=O)CC[C@@H]4[C@H]32)cc1               Cmax        153 ng/mL

----------
Target: UniProt:P04150
Sequence (P04150 whole entry): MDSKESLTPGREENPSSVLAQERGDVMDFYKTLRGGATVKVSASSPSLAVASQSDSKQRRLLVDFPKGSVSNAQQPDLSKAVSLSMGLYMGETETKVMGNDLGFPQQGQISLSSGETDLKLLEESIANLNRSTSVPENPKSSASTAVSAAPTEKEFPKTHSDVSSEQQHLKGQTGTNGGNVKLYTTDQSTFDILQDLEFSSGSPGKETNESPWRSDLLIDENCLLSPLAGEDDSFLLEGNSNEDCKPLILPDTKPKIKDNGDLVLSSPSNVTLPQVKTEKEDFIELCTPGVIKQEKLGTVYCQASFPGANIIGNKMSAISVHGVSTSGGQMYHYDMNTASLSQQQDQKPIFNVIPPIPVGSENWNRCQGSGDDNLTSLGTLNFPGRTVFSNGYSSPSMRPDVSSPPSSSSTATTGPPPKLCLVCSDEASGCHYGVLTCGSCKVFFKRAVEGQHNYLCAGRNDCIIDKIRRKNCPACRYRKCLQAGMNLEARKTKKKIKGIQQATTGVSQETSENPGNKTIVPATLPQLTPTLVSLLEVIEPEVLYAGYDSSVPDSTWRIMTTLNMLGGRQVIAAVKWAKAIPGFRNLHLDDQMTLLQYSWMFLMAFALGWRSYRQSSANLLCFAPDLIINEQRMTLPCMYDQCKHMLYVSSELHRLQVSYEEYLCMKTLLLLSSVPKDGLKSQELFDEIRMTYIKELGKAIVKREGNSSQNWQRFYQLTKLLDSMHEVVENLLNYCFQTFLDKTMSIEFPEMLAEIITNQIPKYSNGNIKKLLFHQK
Assay: Antagonist activity at GR in human OVCAR5 assessed as reduction in dexamethasone-induced GILZ gene expression incubated for 24 hrs by RT-qPCR method
Measurement Label: IC50 (nM)

> print(dat)
                                 mol.smiles  experimental.target  measurement.label  measured.result
1  CC(C)N(C)c1ccc([C@H]2C[C@@]3(C)[C@@H](CC[C@@]3(O)C#CC(C)(C)C)[C@@H]3CCC4=CC(=O)CC[C@@H]4[C@H]32)cc1       UniProt:P04150               IC50             21.2
